B1: FAM189A2 (parent)
chain: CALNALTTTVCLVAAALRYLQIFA

Variants of: B1
ASSAY OVERVIEW: protein stability index of a GFP-peptide fusion (GPS, HEK-293T) (PSI 1-6); higher = more stable;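 also: lentivirally expressed fusions sorted by FACS into six bins by GFP to DsRed ratio, PSI derived from sequencing read proportions per bin multiplied by bin number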
EXPERIMENTAL CONDITIONS: c terminus: a fixed tail appended
// reported protein stability index for each item listed
Reply with the value as a number alone.

Some solved cases for reference:
CDLNALTTTVCLVAAALRYLQIFA [A2D]    4.37
CALNALTTTVCLVAAALRYLQVFA [I22V]    2.72
CALNALTTTVCLVAIALRYLQIFA [A15I]    3.05
CALNALTTTVCLVAACLRYLQIFA [A16C]    4.04
CALNALTLTVCLVAAALRYLQIFA [T8L]    1.99

Request: Would you mind telling me what protein stability index value was observed for CALNALTTTVCLVAKALRYLQIFA [A15K] ?
Response: 2.76

Request: Would you mind telling me what protein stability index value was observed for CALNALTTTVCLVAAALRYLFIFA [Q21F] ?
Response: 2.15

Request: Would you mind telling me what protein stability index value was observed for CALNALTTTVCLVAAALRYLQIFL [A24L] ?
Response: 2.63

Request: Would you mind telling me what protein stability index value was observed for CALNALTTTVHLVAAALRYLQIFA [C11H] ?
Response: 1.63

Request: Would you mind telling me what protein stability index value was observed for CALNKLTTTVCLVAAALRYLQIFA [A5K] ?
Response: 4.99

Request: Would you mind telling me what protein stability index value was observed for CALNALTTTVCLVAAALRYLQILA [F23L] ?
Response: 3.45

Request: Would you mind telling me what protein stability index value was observed for CALNALTTTVCLVAASLRYLQIFA [A16S] ?
Response: 2.97

Request: Would you mind telling me what protein stability index value was observed for CALNALTTTVCLVAAALVYLQIFA [R18V] ?
Response: 3.16

Request: Would you mind telling me what protein stability index value was observed for CALNALTTTVALVAAALRYLQIFA [C11A] ?
Response: 3.95

Request: Would you mind telling me what protein stability index value was observed for YALNALTTTVCLVAAALRYLQIFA [C1Y] ?
Response: 2.99

Request: Would you mind telling me what protein stability index value was observed for CALNALTTTVCLVAAALRYTQIFA [L20T] ?
Response: 3.88

Request: Would you mind telling me what protein stability index value was observed for CALNALTTTVCLAAAALRYLQIFA [V13A] ?
Response: 2.99

Request: Would you mind telling me what protein stability index value was observed for CALNALTTTVCLVALALRYLQIFA [A15L] ?
Response: 2.19

Request: Would you mind telling me what protein stability index value was observed for CALNALTKTVCLVAAALRYLQIFA [T8K] ?
Response: 1.93
